# tested.system: Human MGAT-2 (Homo sapiens (Human), UniProt Q3SYC2)
# Sequence (Q3SYC2 whole entry): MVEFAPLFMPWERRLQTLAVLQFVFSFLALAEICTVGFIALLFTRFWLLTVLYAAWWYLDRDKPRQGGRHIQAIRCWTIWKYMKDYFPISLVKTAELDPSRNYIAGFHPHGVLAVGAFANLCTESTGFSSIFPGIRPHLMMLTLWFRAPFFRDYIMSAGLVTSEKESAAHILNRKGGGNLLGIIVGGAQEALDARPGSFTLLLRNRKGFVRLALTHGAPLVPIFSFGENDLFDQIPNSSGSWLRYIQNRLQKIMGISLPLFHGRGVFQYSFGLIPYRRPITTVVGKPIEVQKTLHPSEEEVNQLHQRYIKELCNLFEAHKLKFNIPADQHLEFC
# method.description: MGAT SPA Assay;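 further: inhibition scaled between DMSO vehicle as full MGAT2 activity and membranes of uninfected Sf9 cells as blank, IC50 fitted by logistic curve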
# Type: biochemical
# particulars: membranes from Sf9 cells expressing recombinant human MGAT2; 2-monooleoylglycerol and [3H]-oleoyl-CoA
measured.attribute: log10 of IC50 (log10 of the value in nM)
Please interpret these as log10 of IC50 where IC50 is in nM.

Consider the reported log10 of IC50 for these compounds:
Cc1ccc(C2=C(NC(=O)c3nnc(C)o3)C(=O)NC(c3ccc(OCCCC(F)(F)F)cc3)(C(F)(F)F)C2)cc1 (centres unmarked) | 1.53
Cc1ccc(C2=C(NC(=O)c3cc(C)no3)C(=O)NC(c3ccc(OCCCC(F)(F)F)cc3)(C(F)(F)F)C2(F)F)cc1 (centres unmarked) | 1.04
Cc1ccc(C2=C(C(=O)Nc3ccccc3Cl)C(=O)NC(c3ccc(OCCCC(F)(F)F)cc3)(C(F)(F)F)C2)cc1 (centres unmarked) | 2.64
Cc1ccc(C2=C(NC(=O)c3ccc(Cl)nn3)C(=O)NC(c3ccc(OCCCC(F)(F)F)cc3)(C(F)(F)F)C2)cc1 (centres unmarked) | 2.48
Cc1ccc(C2=C(C(=O)Nc3ccc(F)cc3)C(=O)NC(c3ccc(-c4cnccn4)cc3)(C(F)(F)F)C2)cc1 (centres unmarked) | 2.38

// switching to the query compound
Measured log10 of IC50 for this entry COc1ccc(NC(=O)C2=C(c3ccc(C)cc3)CC(c3ccc(OCC(F)(F)F)cc3)(C(F)(F)F)NC2=O)cc1 (centres unmarked) on Human MGAT-2 (Homo sapiens (Human), UniProt Q3SYC2): 1.45
